Where do the numbers come from? From patent US20230295162A1.

Each entry below lists one item and its recorded pIC50 value.
test system: COLO-205 (human colorectal adenocarcinoma) cells; assay: Colorimetric alamarBlue assay, long treatment; settings: COLO 205, 72 h, read-out: cytotoxicity expressed in IC50, COLO-205
Just so you know, pIC50 here is -log10 of the concentration in molar units; reply with that number alone.

- O=C1C2=C(CCN(Cc3ccccc3)C2)N2CCN=C2N1Cc1cccc(F)c1: 5.30
- O=C1C2=C(CCN(Cc3ccc(C(F)(F)F)cc3)C2)N2CCN=C2N1Cc1ccc(C(F)(F)F)c(F)c1: 4.60
- O=C1C2=C(CCN(Cc3ccccc3)C2)N2CCN=C2N1Cc1ccc(F)cc1: 6.61

Now, please, on to the next compound.
Q: If you can, please state the reported pIC50 value of O=C1C2=C(CCN(Cc3ccccc3)C2)N2CCN=C2N1Cc1ccc(C(F)(F)F)cc1 [I/1, reference compound] .
A: 6.60

====

Tested on: Panc-1 (pancreas, carcinoma) cells
Assay: Cell viability assay, CellTiter-Glo (Example 21)
Format: cell-based, human
Conditions: 100 nM, 72 h treatment
Method: Effect of the selected compounds on cancer cell viability was measured via CellTiter-Glo® luminescent cell viability assay (Promega, Madison, WI, USA) according to the manufacturer's instructions. Cells were plated onto a flat-bottomed, white 96 well plate (BRANDplates®, cat. no.: 781965). […] After the treatment, the luminescence signal was recorded using a microplate reader (BioTek Synergy 2 Multi-Mode Reader, BioTek, Winooski, VT, USA). […]
Each entry below lists one item and its recorded Panc-1 (pancreas, carcinoma) cell viability (% of control) value.

• [N-]=[N+]=Nc1cccc(CN2CCC3=C(C2)C(=O)N(Cc2ccc(Cl)cc2)C2=NCCN23)c1 [I/133] = 56.1 ± 3.7 % of control
• O=C1C2=C(CCN(Cc3cccc(F)c3)C2)N2CCN=C2N1Cc1ccc(C(F)(F)F)cc1 [I/3, reference compound] = 59.9 ± 17.3 % of control
• O=C1C2=C(CCN(Cc3cccc(F)c3)C2)N2CCN=C2N1Cc1ccc(F)cc1 [I/6, reference compound] = 57.1 ± 0.1 % of control
• [N-]=[N+]=Nc1ccc(CN2C(=O)C3=C(CCN(Cc4cc(F)cc(F)c4)C3)N3CCN=C23)cc1 [I/107] = 54.2 ± 0.6 % of control
• O=C1C2=C(CCN(Cc3ccccc3)C2)N2CCN=C2N1Cc1ccc(C(F)(F)F)cc1 [I/1, reference compound] = 81.8 ± 8.1 % of control

Now, please, on to the next compound.
Q: If you can, please state the reported Panc-1 (pancreas, carcinoma) cell viability (% of control) value of [N-]=[N+]=Nc1cccc(CN2CCC3=C(C2)C(=O)N(Cc2ccc(C(F)(F)F)cc2)C2=NCCN23)c1 [I/111] .
A: 50.1 ± 2.0 % of control

====

system: Panc1 pancreatic cancer cell line; assay: CellTiter-Glo IC50 (Example 19); format: cell-based; settings: Homo sapiens, PANC-1, 72 h
readoutKind: IC50 (nM)
I only need the number, in nM, no unit after it.

// known answers, use as guide
* [N-]=[N+]=Nc1cccc(CN2CCC3=C(C2)C(=O)N(Cc2ccc(C(F)(F)F)cc2)C2=NCCN23)c1 | 9
* O=C1C2=C(CCN(Cc3cc(F)cc(F)c3)C2)N2CCN=C2N1[C@H](CO)c1ccc(F)cc1 [I/129 (S)] | 265
* NCc1cccc(CN2C(=O)C3=C(CCN(Cc4cc(F)cc(F)c4)C3)N3CCN=C23)c1 | 300
* O=C1C2=C(CCN(Cc3cc(F)cc(F)c3)C2)N2CCN=C2N1[C@@H](CO)c1ccc(F)cc1 [I/129 (R)] | 15
* O=C1C2=C(CCN(Cc3cc(F)cc(F)c3)C2)N2CCN=C2N1Cc1ccc(F)cc1 | 11
* O=C1C2=C(CCN(Cc3cc(F)cc(F)c3)C2)N2CCN=C2N1Cc1ccc(Br)cc1 | 4

Q: If you can, please state the reported IC50 value of O=C1C2=C(CCN(Cc3ccccc3)C2)N2CCN=C2N1Cc1ccc(C(F)(F)F)cc1 [I/1, reference compound] .
A: 74

Q: What do you have for O=C1C2=C(CCN(Cc3cc(F)cc(F)c3)C2)N2CCN=C2N1Cc1ccc(Cl)cc1 ?
A: 2

Q: What do you have for O=C1C2=C(CCN(Cc3cc(F)cc(F)c3)C2)N2CCN=C2N1C(CO)c1ccc(Cl)cc1 (racemic) ?
A: 10

Q: What do you have for [N-]=[N+]=Nc1ccc(CN2C(=O)C3=C(CCN(Cc4cc(F)cc(F)c4)C3)N3CCN=C23)cc1 ?
A: 14

Q: What do you have for O=C1C2=C(CCN(Cc3cc(F)cc(F)c3)C2)N2CCN=C2N1Cc1ccc(C(F)(F)F)cc1 ?
A: 3

====

tested on: MDA-MB-231 (breast, adenocarcinoma) cells; assay: Cell viability assay, CellTiter-Glo (Example 21); assay type: cell-based, human; conditions: 11.1 nM, 72 h treatment
Each entry below lists one item and its recorded MDA-MB-231 (breast, adenocarcinoma) cell viability (% of control) value.

* O=C1C2=C(CCN(Cc3cccc(F)c3)C2)N2CCN=C2N1Cc1ccc(C(F)(F)F)cc1 [I/3, reference compound] | 99.8 ± 1.8 % of control

Q: Provide value of MDA-MB-231 (breast, adenocarcinoma) cell viability (% of control) for this record tested with MDA-MB-231 (breast, adenocarcinoma) cells: [N-]=[N+]=Nc1ccc(CN2C(=O)C3=C(CCN(Cc4cc(F)cc(F)c4)C3)N3CCN=C23)cc1
A: 98.6 ± 0.8 % of control

Q: What do you have for O=C1C2=C(CCN(Cc3ccccc3)C2)N2CCN=C2N1Cc1ccc(C(F)(F)F)cc1 [I/1, reference compound] ?
A: 97.9 ± 1.1 % of control

Q: What do you have for O=C1C2=C(CCN(Cc3cc(F)cc(F)c3)C2)N2CCN=C2N1Cc1ccc(Cl)cc1 ?
A: 59.4 ± 4.5 % of control

Q: What do you have for O=C1C2=C(CCN(Cc3cccc(F)c3)C2)N2CCN=C2N1Cc1ccc(F)cc1 [I/6, reference compound] ?
A: 99.4 ± 4.1 % of control

====

Each entry below lists one item and its recorded LNCaP cell viability value.
System: LNCaP (prostate, carcinoma) cells
Experiment: Cell viability assay, CellTiter-Glo (Example 21)
Format: cell-based, human
Details: 300 nM, 72 h
Procedure: Effect of the selected compounds on cancer cell viability was measured via CellTiter-Glo® luminescent cell viability assay (Promega, Madison, WI, USA) according to the manufacturer's instructions. Cells were plated onto a flat-bottomed, white 96 well plate (BRANDplates®, cat. no.: 781965). […] After the treatment, the luminescence signal was recorded using a microplate reader (BioTek Synergy 2 Multi-Mode Reader, BioTek, Winooski, VT, USA). […]

// known answers, use as guide
- [N-]=[N+]=Nc1ccc(CN2C(=O)C3=C(CCN(Cc4cc(F)cc(F)c4)C3)N3CCN=C23)cc1 [I/107]: 13.6 ± 0.6 % of control
- O=C1C2=C(CCN(Cc3cccc(F)c3)C2)N2CCN=C2N1Cc1ccc(C(F)(F)F)cc1 [I/3, reference compound]: 12.7 ± 1.2 % of control
- [N-]=[N+]=Nc1cccc(CN2CCC3=C(C2)C(=O)N(Cc2ccc(C(F)(F)F)cc2)C2=NCCN23)c1 [I/111]: 11.7 ± 0.7 % of control
- O=C1C2=C(CCN(Cc3cc(F)cc(F)c3)C2)N2CCN=C2N1Cc1ccc(Cl)cc1 [I/124]: 13.0 ± 0.7 % of control
- [N-]=[N+]=Nc1cccc(CN2CCC3=C(C2)C(=O)N(Cc2ccc(Cl)cc2)C2=NCCN23)c1 [I/133]: 13.3 ± 1.2 % of control

Q: Provide value of LNCaP cell viability for this record tested with LNCaP (prostate, carcinoma) cells: O=C1C2=C(CCN(Cc3cc(F)cc(F)c3)C2)N2CCN=C2N1Cc1ccc(C(F)(F)F)cc1 [I/30]
A: 11.3 ± 1.1 % of control

Q: What do you have for O=C1C2=C(CCN(Cc3cc(F)cc(F)c3)C2)N2CCN=C2N1Cc1ccc(F)cc1 [I/7] ?
A: 13.9 ± 1.0 % of control

Q: What do you have for O=C1C2=C(CCN(Cc3cccc(F)c3)C2)N2CCN=C2N1Cc1ccc(F)cc1 [I/6, reference compound] ?
A: 14.4 ± 0.7 % of control

Q: What do you have for O=C1C2=C(CCN(Cc3ccccc3)C2)N2CCN=C2N1Cc1ccc(C(F)(F)F)cc1 [I/1, reference compound] ?
A: 15.2 ± 1.7 % of control

====

Test system: DU 145 (prostate, carcinoma) cells
Experiment: Cell viability assay, CellTiter-Glo (Example 21)
Type: cell-based, human
Settings: 11.1 nM, 72 h
Description: Effect of the selected compounds on cancer cell viability was measured via CellTiter-Glo® luminescent cell viability assay (Promega, Madison, WI, USA) according to the manufacturer's instructions. Cells were plated onto a flat-bottomed, white 96 well plate (BRANDplates®, cat. no.: 781965). […] After the treatment, the luminescence signal was recorded using a microplate reader (BioTek Synergy 2 Multi-Mode Reader, BioTek, Winooski, VT, USA). […]
Each entry below lists one item and its recorded DU 145 cell viability value.

// known answers, use as guide
* O=C1C2=C(CCN(Cc3cccc(F)c3)C2)N2CCN=C2N1Cc1ccc(C(F)(F)F)cc1 [I/3, reference compound] | 95.9 ± 5.1 % of control
* O=C1C2=C(CCN(Cc3cc(F)cc(F)c3)C2)N2CCN=C2N1Cc1ccc(F)cc1 [I/7] | 7.5 ± 0.6 % of control
* O=C1C2=C(CCN(Cc3cc(F)cc(F)c3)C2)N2CCN=C2N1Cc1ccc(Cl)cc1 [I/124] | 7.0 ± 1.1 % of control

Now, please, on to the next compound.
Q: If you can, please state the reported DU 145 cell viability value of [N-]=[N+]=Nc1cccc(CN2CCC3=C(C2)C(=O)N(Cc2ccc(C(F)(F)F)cc2)C2=NCCN23)c1 [I/111] .
A: 33.8 ± 5.0 % of control
